Biological target: human GLP-1 receptor (Homo sapiens, UniProt P43220)
Construct: expressed in transfected cells; host or cells: Chinese hamster ovary (CHO)
Sequence (P43220 24-463): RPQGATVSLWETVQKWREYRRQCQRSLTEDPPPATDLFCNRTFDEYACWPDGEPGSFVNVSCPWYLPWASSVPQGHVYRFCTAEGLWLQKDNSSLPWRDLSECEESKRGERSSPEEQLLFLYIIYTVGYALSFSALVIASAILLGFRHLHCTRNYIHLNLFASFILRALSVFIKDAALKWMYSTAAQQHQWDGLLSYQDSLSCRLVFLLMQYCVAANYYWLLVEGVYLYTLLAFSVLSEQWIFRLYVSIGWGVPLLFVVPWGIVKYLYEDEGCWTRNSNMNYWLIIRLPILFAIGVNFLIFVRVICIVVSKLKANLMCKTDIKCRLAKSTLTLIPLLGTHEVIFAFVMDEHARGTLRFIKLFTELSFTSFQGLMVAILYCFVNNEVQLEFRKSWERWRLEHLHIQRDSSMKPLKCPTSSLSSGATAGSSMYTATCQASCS
Experiment: In vitro cAMP activity (LANCE cAMP kit) in CHO cells expressing human GLP-1 receptor, relative to human GLP-1
Format: cell-based
Conditions: long-acting conjugates; relative potency from cAMP EC50 compared to human GLP-1, CHO cells
Positions of bridges follow the written chain, without caps; N, C: chain ends. Non-standard residues stand in square brackets, D forms with d. No end group written: not given here. Aib = CC(C)(N)C(=O)O
Measured In vitro activity compared to native peptide (%) vs. GLP-1 accompanies every entry in the list below.
Note to self: number, then unit, no commentary.

For orientation, consider the following solved cases.
> print(dat)
                                  substance  observed.measurement
1  42 (Y[Aib]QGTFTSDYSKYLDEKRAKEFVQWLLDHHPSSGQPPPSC; bridge 16-20) [compound 42]                  3.1%
2  96 (Y[Aib]QGTFTSDYSKYLDEKRAKEFVQWLLDHCPSSGQPPPS; bridge 16-20) [compound 96]                  0.3%
3  50 (H[Aib]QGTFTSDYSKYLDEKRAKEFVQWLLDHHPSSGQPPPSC; bridge 16-20) [compound 50]                 15.4%

Would you kindly look at the next entry?
Recorded result, 21 (Y[Aib]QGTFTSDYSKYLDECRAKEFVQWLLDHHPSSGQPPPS; bridge 16-20) [compound 21] , In vitro activity compared to native peptide (%) vs. GLP-1: 0.1%
